Tested on: Staphylococcus aureus MW2 (mecA+)
test: normalized DsRed fluorescence (growth of mecA+ strain) (fraction of control range); higher = more growth of mecA+ strain
condition set: compound concentration: 150 uM; cefoxitin: subinhibitory; fluorescent label: DsRed
# normalized DsRed fluorescence per entry
// response body must contain only the number

QUERY: Value lookup for normalized DsRed fluorescence; key = C=C[C@H]1CN2CC[C@H]1C[C@H]2[C@H](O)c1ccnc2ccc(OC)cc12
RESULT: 0.748

QUERY: Value lookup for normalized DsRed fluorescence; key = CC[C@@H](CO)NCCN[C@@H](CC)CO
RESULT: 0.991

QUERY: Value lookup for normalized DsRed fluorescence; key = NNCCc1ccccc1
RESULT: 0.707

QUERY: Value lookup for normalized DsRed fluorescence; key = CC1(C)NC(=O)N(c2ccc([N+](=O)[O-])c(C(F)(F)F)c2)C1=O
RESULT: 0.86

QUERY: Value lookup for normalized DsRed fluorescence; key = O=c1[nH]cnc2c1ncn2[C@H]1CC[C@@H](CO)O1
RESULT: 0.652

QUERY: Value lookup for normalized DsRed fluorescence; key = Nc1ccc(C(=O)O)cc1
RESULT: 0.958

QUERY: Value lookup for normalized DsRed fluorescence; key = CCN(CC)CCNC(=O)c1cc(Cl)c(N)cc1OC
RESULT: 0.756

QUERY: Value lookup for normalized DsRed fluorescence; key = CNCc1ccc(-c2[nH]c3cc(F)cc4c3c2CCNC4=O)cc1
RESULT: 0.641

QUERY: Value lookup for normalized DsRed fluorescence; key = CCCC(=O)Nc1ccc(OCC(O)CNC(C)C)c(C(C)=O)c1 (configuration not stated)
RESULT: 0.62

QUERY: Value lookup for normalized DsRed fluorescence; key = C[C@](N)(Cc1ccc(O)c(O)c1)C(=O)O
RESULT: 0.703

Further cases:
QUERY: Value lookup for normalized DsRed fluorescence; key = CCN[C@@H]1C[C@H](N)[C@@H](O[C@H]2OC(CN)=CC[C@H]2N)[C@H](O)[C@H]1O[C@H]1OC[C@](C)(O)[C@H](NC)[C@H]1O
RESULT: 0.952

QUERY: Value lookup for normalized DsRed fluorescence; key = COc1ccc2c(c1)c(CC(=O)O)c(C)n2C(=O)c1ccc(Cl)cc1
RESULT: 0.261

QUERY: Value lookup for normalized DsRed fluorescence; key = COCCCOc1ccnc(C[S+]([O-])c2nc3ccccc3[nH]2)c1C (configuration not stated)
RESULT: 0.865

QUERY: Value lookup for normalized DsRed fluorescence; key = Cn1c(=O)c2c(ncn2CC2OCCO2)n(C)c1=O
RESULT: 1.05

QUERY: Value lookup for normalized DsRed fluorescence; key = CCOC(=O)C1=C[C@]2(CC)CCCN3CCc4c(n1c1ccccc41)[C@@H]32
RESULT: 0.554

###

Test system: Staphylococcus aureus MW2 (mecA+)
test: normalized DsRed fluorescence (growth of mecA+ strain) (fraction of control range); higher = more growth of mecA+ strain
condition set: compound concentration: 150 uM; cefoxitin: subinhibitory; fluorescent label: DsRed
Counter-ions that a name gives are not always drawn.
# normalized DsRed fluorescence per entry
// response body must contain only the number

QUERY: Value lookup for normalized DsRed fluorescence; key = CCN(Cc1ccncc1)C(=O)C(CO)c1ccccc1 (configuration not stated)
RESULT: 0.607

QUERY: Value lookup for normalized DsRed fluorescence; key = CN1CCC(=C2c3ccccc3C=Cc3ccccc32)CC1
RESULT: 1.31

QUERY: Value lookup for normalized DsRed fluorescence; key = C[C@@H]1NC(=O)[C@@H](N)CNC(=O)[C@H](C2CCNC(=N)N2)NC(=O)/C(=C/NC(N)=O)NC(=O)[C@H](CNC(=O)CC(N)CCCN)NC1=O.N=C1NCCC([C@@H]2NC(=O)/C(=C/NC(N)=O)NC(=O)[C@H](CNC(=O)CC(N)CCCN)NC(=O)[C@H](CO)NC(=O)[C@@H](N)CNC2=O)N1 (some centres not stated)
RESULT: 0.758

QUERY: Value lookup for normalized DsRed fluorescence; key = C[C@@H]1CCN(C(=O)CC#N)C[C@@H]1N(C)c1ncnc2[nH]ccc12
RESULT: 0.9

QUERY: Value lookup for normalized DsRed fluorescence; key = Cc1ccc(NC(=O)c2ccc(CN3CCN(C)CC3)cc2)cc1Nc1nccc(-c2cccnc2)n1 [Imatinib Mesylate]
RESULT: 0.918

QUERY: Value lookup for normalized DsRed fluorescence; key = C=C1CC[C@H](O)C/C1=C/C=C1\CCC[C@]2(C)[C@@H]([C@H](C)CCCC(C)(C)O)CC[C@@H]12 [Calcifediol]
RESULT: 0.65

QUERY: Value lookup for normalized DsRed fluorescence; key = Nc1nc(=O)c2nc(CNc3ccc(C(=O)N[C@@H](CCC(=O)O)C(=O)O)cc3)cnc2[nH]1
RESULT: 0.831

QUERY: Value lookup for normalized DsRed fluorescence; key = CCCNC(C)C(=O)Nc1ccccc1C (configuration not stated)
RESULT: 0.919

QUERY: Value lookup for normalized DsRed fluorescence; key = CCCc1nc2c(C)cc(-c3nc4ccccc4n3C)cc2n1Cc1ccc(-c2ccccc2C(=O)O)cc1
RESULT: 0.194

QUERY: Value lookup for normalized DsRed fluorescence; key = Cn1nnc2c(C(N)=O)ncn2c1=O [Temozolomide]
RESULT: 1.11

Further cases:
QUERY: Value lookup for normalized DsRed fluorescence; key = Cc1[nH+]cc(COP(=O)([O-])[O-])c(CN(CCN(CC(=O)[O-])Cc2c(COP(=O)([O-])O)c[nH+]c(C)c2O)CC(=O)[O-])c1O.[Mn].[Na+].[Na+].[Na+]
RESULT: 0.481

QUERY: Value lookup for normalized DsRed fluorescence; key = C[C@H]1C[C@@H]2[C@H]([C@@H](O)C[C@@]3(C)[C@H]2CC[C@]3(O)C(=O)COC(=O)CCC(=O)O)[C@@]2(C)C=CC(=O)C=C12
RESULT: 0.526

QUERY: Value lookup for normalized DsRed fluorescence; key = CN1CCCN=C1COC(=O)C(O)(c1ccccc1)C1CCCCC1 (configuration not stated)
RESULT: 0.63

QUERY: Value lookup for normalized DsRed fluorescence; key = Nc1ccc(S(=O)(=O)Nc2nccs2)cc1
RESULT: 1.4

QUERY: Value lookup for normalized DsRed fluorescence; key = COC(=O)Nc1nc2cc(C(=O)c3ccccc3)ccc2[nH]1
RESULT: 1.25

QUERY: Value lookup for normalized DsRed fluorescence; key = CCN(CC)CCNC(=O)c1cc(S(C)(=O)=O)ccc1OC
RESULT: 0.945

QUERY: Value lookup for normalized DsRed fluorescence; key = CCc1cn([C@H]2C[C@H](O)[C@@H](CO)O2)c(=O)[nH]c1=O
RESULT: 0.714
